Tested on: human SMAD7 mRNA
Protocol Text: Antisense inhibition of human SMAD7 mRNA expression in Hep3B cells by 3-10-3 cEt gapmers, 10,000 nM, electroporation (Example 2)
Format: cell-based
Details: Hep3B cells, 10,000 nM antisense oligonucleotide, electroporation, approximately 24 hours, RT-PCR primer probe set RTS5062, relative to untreated control cells
Strand notation (5' to 3'): a small letter for the sugar, then the base; units joined by * are phosphorothioate-linked, units joined directly phosphodiester-linked; [ ] holds rarer units or linkages, { } end groups; capitals alone tell only the bases. k = constrained ethyl (cEt); [5mC] = 5-methylcytosine; d = 2'-deoxy (DNA)
Returns fulfilled if the recorded % Inhibition is greater than or equal to 20%, and not fulfilled otherwise.

>>> class_assignment("772621 (kA*kA*k[5mC]*dT*dG*d[5mC]*dT*dG*d[5mC]*dG*dG*dT*dT*kG*kT*kA; antisense) [compound 772621]")
"fulfilled"
>>> class_assignment("798827 (kA*kG*kA*dG*dA*dG*dG*dG*d[5mC]*dT*d[5mC]*d[5mC]*dT*kG*kG*kA; antisense) [compound 798827]")
"fulfilled"
>>> class_assignment("772597 (k[5mC]*kA*kG*dT*dA*dT*dG*d[5mC]*d[5mC]*dA*d[5mC]*d[5mC]*dA*k[5mC]*kG*k[5mC]; antisense) [compound 772597]")
"not fulfilled"
>>> class_assignment("790513 (k[5mC]*kA*k[5mC]*d[5mC]*dA*dG*d[5mC]*dT*dG*dA*d[5mC]*dT*d[5mC]*kT*kT*kG; antisense) [compound 790513]")
"not fulfilled"
>>> class_assignment("799900 (antisense k[5mC]*kA*kA*dG*dT*d[5mC]*dT*d[5mC]*dT*dT*dA*d[5mC]*d[5mC]*kT*k[5mC]*kA) [compound 799900]")
"fulfilled"
>>> class_assignment("800011 (k[5mC]*kT*kT*d[5mC]*dA*dG*d[5mC]*d[5mC]*dT*dG*dT*dG*dT*kT*kT*kG; antisense) [compound 800011]")
"fulfilled"
>>> class_assignment("798907 (kG*k[5mC]*kG*dG*d[5mC]*dT*dA*d[5mC]*d[5mC]*dG*dG*d[5mC]*dT*kG*kT*kT; antisense) [compound 798907]")
"not fulfilled"
>>> class_assignment("799874 (k[5mC]*kA*kG*dA*d[5mC]*dT*dG*dG*dA*dA*dA*dA*dG*kT*kT*kA; antisense) [compound 799874]")
"not fulfilled"
>>> class_assignment("798859 (k[5mC]*kG*kG*dA*d[5mC]*dT*dT*dG*dA*dT*dG*dA*dA*kG*kA*kT; antisense) [compound 798859]")
"not fulfilled"
>>> class_assignment("799939 (antisense kG*k[5mC]*kA*dT*dT*dT*dA*dA*dT*dT*dT*dG*d[5mC]*kA*kA*k[5mC]) [compound 799939]")
"fulfilled"
>>> class_assignment("799972 (k[5mC]*kA*k[5mC]*dA*dA*dG*dG*dA*d[5mC]*d[5mC]*d[5mC]*dT*dT*kG*k[5mC]*kT; antisense) [compound 799972]")
"not fulfilled"
>>> class_assignment("800057 (antisense kT*kT*k[5mC]*dA*d[5mC]*dT*dT*dG*dT*dT*dT*d[5mC]*dT*kG*k[5mC]*kA) [compound 800057]")
"fulfilled"
>>> class_assignment("798893 (kT*kG*kG*d[5mC]*d[5mC]*d[5mC]*d[5mC]*dA*dG*d[5mC]*d[5mC]*d[5mC]*dT*kT*k[5mC]*kA; antisense) [compound 798893]")
"fulfilled"
